experiment: In vitro decarboxylation by partially purified hog kidney AADC (HPLC); format: in vitro ADME; details: pig; hog kidney AADC, 37°, 2 hours, DL-mixture, HPLC; read-out: decarboxylation to the corresponding allylamine
Endpoint label: metabolised at 2 h (%)
Give just the numeric value; % need not be written.

Data request, read-out metabolised at 2 h, for NC(C(=O)O)C(=CF)c1cccc(O)c1 (racemic) [AFHBA]
50
